Data provenance is PubChem BioAssay AID1996.

Details: buffer; pH 7.4; 200.0 µM
Metric: solubility kinetic

| Compound | solubility kinetic |
| --- | --- |
| CCOC(=O)c1ccc(S(=O)(=O)N2CCN(C(=O)c3ccccn3)CC2)cc1 | > 60.5 µg/mL |
| O=C(COC(=O)CNS(=O)(=O)c1cc(C(F)(F)F)ccc1Cl)NC1CC1 | > 62.2 µg/mL |

Enquiry: Retrieve solubility kinetic measured for `Cc1ccc(C)c(NC(=O)CSc2nnc(-c3ccncc3)o2)c1` and print it.
Return: > 51.1 µg/mL

Enquiry: Please supply the value of reported solubility kinetic for the item `COC(CNC(=O)c1ccc2c(c1)ncn2C1CCCCCC1)OC`
Return: > 51.8 µg/mL

Enquiry: Give the value of solubility kinetic reported for the following: `C=CCNC(=O)c1cc2c(=O)n3ccccc3nc2s1`
Return: 10.4 µg/mL
